System: normal primary NK cells, pool 1 (3 donors) (IL-2 2.5 ng/mL);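 also: normalised to DMSO-only wells as negative and benzethonium chloride as positive control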
PROTOCOL TEXT: percent inhibition of viability; higher = more inhibition
CONDITION: 72 h; 10 nM
MEASURED METRIC: percent inhibition of viability (%)
Number in %, nothing else.

Item: CCCCCOC(=O)Nc1nc(=O)n([C@@H]2O[C@H](C)[C@@H](O)[C@H]2O)cc1F [Capecitabine] (max concentration tested 10000 nM) | percent inhibition of viability: -11.6

# percent inhibition of viability of CC(C)C[C@H](NC(=O)[C@@H](COC(C)(C)C)NC(=O)[C@H](Cc1ccc(O)cc1)NC(=O)[C@H](CO)NC(=O)[C@H](Cc1c[nH]c2ccccc12)NC(=O)[C@H](Cc1cnc[nH]1)NC(=O)[C@@H]1CCC(=O)N1)C(=O)N[C@@H](CCCNC(=N)N)C(=O)N1CCC[C@H]1C(=O)NNC(N)=O [Goserelin] (max concentration tested 10000 nM) = -1.49

So for CN(C)Cc1ccc(S(=O)(=O)n2ccc(/C=C/C(=O)NO)c2)cc1 [Resminostat] (max concentration tested 10000 nM) , the logged percent inhibition of viability turned out to be 11.9

Looking up C/C(=C\c1csc(C)n1)[C@@H]1C[C@@H]2O[C@]2(C)CCC[C@H](C)[C@H](O)[C@@H](C)C(=O)C(C)(C)[C@@H](O)CC(=O)O1 [Patupilone] (max concentration tested 1000 nM) , I see its percent inhibition of viability listed as 10.3
